Tested on: OVCAR-8 ovarian
Assay: NCI-60 one-dose screen, 48 h (100 = growth as untreated, 0 = no growth, -100 = all killed)
Conditions: 10 µM unless noted
Description: Growth inhibition of the OVCAR-8 human tumor cell line is measured as a screen for anti-cancer activity. Cells are grown in 96 well plates and exposed to the test compound for 48 hours. Compounds are tested at a single concentration, which is 10^-5 M for most compounds. The reported endpoint is percent growth (GI% or GIPRCNT), where numbers from 0 - 100% represent growth inhibition, and numbers from -100% - 0 represent cell death. For example, a value of 40 represents 60% growth inhibition. […]
This is part of a sample that, as a whole, favours compounds with a hit. Of some 83,000 tested, about 20% had one in any assay.
Label rule, in plain words: growth of 40% and up is MET, under 40% is NOT MET.

Ask | Textbook exercise: given the entry `COc1cc(C#Cc2ccc(=O)oc2C#Cc2ccccc2)cc(OC)c1OC` , state whether its growth is greater than or equal to 40%.
Reply | MET

Ask | Decide: growth of CC1(C)C2CC=C(/C=N/NC(=O)C3CCC(=O)N3)C1C2 (stereo not given) >= 40%?
Reply | MET

Ask | Check if growth >= 40% (inclusive). Item: `CCN(CC)c1ccc(/C=N/NC(=O)c2ccc(Nc3ccnc(C(F)(F)F)c3)cc2)c(O)c1`
Reply | MET

Ask | Does the reported growth for Cc1ccc(C)c2c1C(O)(C#Cc1ccccc1)c1ccccc1C2(O)C#Cc1ccccc1 (stereo not given) fall at or above the 40% mark?
Reply | MET

Ask | Say whether `O=C1/C(=C/c2ccc(Br)cc2)COc2ccc(O)c(O)c21` shows growth of 40% or more.
Reply | NOT MET

====

For each of the compounds below, state its growth.
Tested on: SW-620 colon
Test: NCI-60 one-dose screen, 48 h (100 = growth as untreated, 0 = no growth, -100 = all killed)
Settings: 10 µM unless noted
Procedure: Growth inhibition of the SW-620 human tumor cell line is measured as a screen for anti-cancer activity. Cells are grown in 96 well plates and exposed to the test compound for 48 hours. Compounds are tested at a single concentration, which is 10^-5 M for most compounds. The reported endpoint is percent growth (GI% or GIPRCNT), where numbers from 0 - 100% represent growth inhibition, and numbers from -100% - 0 represent cell death. For example, a value of 40 represents 60% growth inhibition. […]
About 83,000 compounds went through this panel and 20% of them were active in at least one assay; those are over-represented in the sample as a whole.
# unit: % | format: bare number

Ask | Return growth measured with SW-620 colon given this compound: CCOC(=O)c1c(C)nn(CC(O)c2ccccc2)c1NC(=O)Nc1cccc(F)c1 (stereo not given)
Reply | 82.7

Ask | Item: `c1ccc2cc(Cn3c[n+](Cc4ccc5ccccc5c4)c4ccccc43)ccc2c1` Test system: SW-620 colon Read-out: growth Value: ?
Reply | -3

Ask | Recall the recorded growth for `COc1ccc(/C(C)=C(\c2ccc(OCCN3CCCCCC3)cc2)c2ccc(OC(=O)c3ccccc3)cc2)cc1` with SW-620 colon and state it.
Reply | 44.8

Ask | # value lookup — system SW-620 colon, readout growth, item `Cn1c(O)c(C(/C=C/c2ccccc2)=Nc2ccccc2N)c(=O)n(C)c1=O`
Reply | 106

Ask | Recall the recorded growth for CC(CN)[C@@H]1CC[C@]2(CO)CC[C@]3(C)[C@H](CC[C@@H]4[C@@]5(C)CCC(N)C(C)(C)[C@@H]5CC[C@]43C)[C@@H]12 (stereo not given in full) with SW-620 colon and state it.
Reply | -75.7

Ask | Form: Entry = `CCCCCCOC(=O)CC1=C(C)/C(=C/c2[nH]c(-c3ccc[nH]3)cc2OC)N=C1C` | System = SW-620 colon | growth = ____
Reply | -74

Ask | Please provide the recorded growth for CC(=O)N/C(=C1/OC(C(O)C(O)C(O)CO)CN1C)[P+](c1ccccc1)(c1ccccc1)c1ccccc1 (stereo not given) , tested on SW-620 colon.
Reply | 104

Ask | Form entry - test system: SW-620 colon; read-out: growth; compound: CC1CN=C(c2cccc(-c3ccc(-c4ccccc4)o3)c2)N1 (stereo not given)
Reply | -40.6

Ask | Record CCN1C(=S)N(CC)C2C1NC(=S)N2/N=C/C=C/c1ccccc1OC (stereo not given) : what is its growth with SW-620 colon?
Reply | 23.8

Ask | Write down the reported growth of `CCOc1ccc(/C=N\N=C\c2ccc(OCC)cc2)cc1` , test system: SW-620 colon.
Reply | 52.8

Ask | Under SW-620 colon: growth value of `C[C@@H](CO)[C@@H]1CC[C@]2(C(=O)N3CCN(C)CC3)CC[C@]3(C)[C@H](CC[C@@H]4[C@@]5(C)CC[C@H](O)C(C)(C)[C@@H]5CC[C@]43C)[C@@H]12` ?
Reply | 51.5

Ask | GET /values?readout=growth&system=SW-620 colon&item= `N=C(N)c1ccc(-c2ccc(-c3ccc(Cl)cc3)o2)o1`
Reply | -69.7

Ask | Record lookup: for SW-620 colon, what growth belongs to `CCOC(=O)c1c(NC(=O)c2ccc(C(C)(C)C)cc2)sc2cc(O)ccc12` ?
Reply | 91.7

Ask | Return growth measured with SW-620 colon given this compound: `C[N+](C)(C/C=C/c1ccccc1)Cc1ccccc1`
Reply | 100

Ask | I'm curious: which growth was measured for `COC(=O)c1c2c(c(C)[n+]([O-])c1C)C(=O)C=CC2=O` tested on SW-620 colon?
Reply | -19.5

Ask | // map `COc1ccc2c(c1)c(-c1ccc(-c3cn(C)c4ccc(OC)cc34)[nH]1)cn2C` to recorded growth (system: SW-620 colon)
Reply | -48.6

Ask | API: value(readout=growth, system=SW-620 colon) for record `CC(C)CCSc1nc(Nc2ccccc2)c(C#N)c(-c2ccccc2)n1`
Reply | 56.9

Ask | Given the entry O=C(CN1C(=O)NC2NC(=O)NC21)N/N=C/c1ccc(Cl)cc1Cl (stereo not given) , what growth was observed with SW-620 colon?
Reply | 104

Ask | Under SW-620 colon: growth value of `COc1ccc(Cc2nnc(Nc3nc4ccccc4s3)s2)cc1` ?
Reply | 97.8

Ask | Which measured growth belongs to `C=CCn1c(SCC(=O)Nc2ccc(C(=O)/C=C/c3ccc(OC)cc3)cc2)nnc1-c1ccccc1` , tested on SW-620 colon?
Reply | 97.7
